Experiment: yeast display, Sf9 membrane polyspecificity reagent, FACS + sequencing; frameworks hold sequencing errors
measured parameter: polyreactivity (PSR sort gate)

1. QVQLVESGGGLVQAGGSLRLSCAASGSIYSYNVMGWYRQAPGKERELVAAITRSGGSTYYADSVKGRFTISRDNAKNTVYLQMNSLKPEDTAVYYCATAYYSTPFREYSYWGQGTQVTVSS :: low polyreactivity
2. QVHLVESGGGLVQAGGSLRLCCAASGRIFDHNTKGWYRQAPGKEMEFVAAITVSAGTTYYADSVKGRFTISSDNAKNTVYLQMNSLKPEDTAVYYCAAYYVYSYWDWGDYWGQGTQVTVSS :: low polyreactivity
3. QVQLVESGGGFVQAGGSLRLSCAASGRIFRTNAMGWYRQAPGKERELVAAITSSGTRTYYADSVKGRFTISRDNAKNTVYLQMNSLKPEDTAVYYCAAGGGHSMYYWGQGTQVTVSS :: high polyreactivity
4. QVQLVESGGGLVQAGGSLRLSCAAAGSIFGSYAMGWSRQAPGKERELVPAINSGGATIYSDSVKGRFTISRDNAKNTVYLQMNSLKPEDTAVYYCNAPGRRFNRYGGDYWGQGTQVTVSS :: high polyreactivity

As a next step, examine the sequence that follows.
Quick check: polyreactivity (PSR sort gate) of QVQLVESGGGLVQAGGSLRLSCADSGLTFYDYAMGWYRQAPGKERELVADIDFNGGSTSYADSVKGRFTISRDNAKNTVYLQMNSLKPEDTAVYYCNTRDRGDVVTGLDYWGQGTQVTVSS ?
low polyreactivity

----------
Assay: yeast display, Sf9 membrane polyspecificity reagent, FACS + sequencing; frameworks hold sequencing errors
measured parameter: polyreactivity (PSR sort gate)

1) QVQLVESGGGLVQAGGSLRLSCAGSGSIFHPYAMGWYRQAPGKERELVAAISKSGGNTYYADSVKGRFTISRDNAKNTVYLQMNSLKPEATAVYYCAALDYWGQGTQVTVSS :: low polyreactivity
2) QVQLVESGGGLVQAGGSLRLSCAASGSTFAPNAMGWYRQAPGKERELVASIRRGGSTHYADSVKGRFTISRDNAKNTVYVQMNSLKPEDTAVYYCAKDVWRHYLNLYDYWGQGTQVTVSS :: low polyreactivity
3) QVQLVESGGGLVQAGGSLRLSCAASGSTFYPYLIGWYRQAPGKERELLPAISGGGRTYYADSVKGRFTISRDNAKNTVYLQMNSLKPEDTAVYFCAARYTTYSGRGTRPAGIRYDYWGQGTQVTVSS :: high polyreactivity
4) QVQLVESGGGLVQAGGSLRLTCAASGRTFGLNTMGWYRQAPGKERELVAAISRRGGSTYYADSVKGRFTISRDNAKNTVYLQMNSLKPEDTAVYYCARTSYNRYDYWGQGTQVTVSS :: high polyreactivity
5) QVQLVESGGGLVQAGGRLLLSCAASGFIFYSNAMGWYRQAPGKERELVAAISRSGGSTYYADSVKGRFTISRDNAMNTVFLQMNSLKPEDTAVYYCNADYVYRRYGYWGQGTQVNVSS :: high polyreactivity
6) QFQLVESGGGLVQAGGSLRLSCAASGRIFGGYAMGWYRQAPVKERELVAAIRDSGRTYYADSVKGRFTISRDNAKNTVYLQMNSLKQEDTAVYYFAADAHSTYAPFRWYDYCGQGTQVTVSS :: low polyreactivity
7) QVQLVESGGGLVQAGGSLRLSCAASGSTFAYYAMVWYRQAPGKERELVAAISTIAGRTYYADSVKGRFTISRDNAKNTVYLQMNSLKPEDTAVYYCAVQFLYVVTLYSDYDYWGQGTQVTVSS :: high polyreactivity
8) QVQLVESGGGLVQAGGSLRLSCAASGSRFSHYSMGWYRQAPGKERDLVATITGTGVRTSYADSVKGRFTISRDNAKNTVYLQMNSLKAEDTAVYYCAADGDYDPNLYGYWGQGTQVTVSS :: low polyreactivity

Would you be so kind as to report polyreactivity (PSR sort gate) for each listed record?
1. QVQHVESGGGLVQAGRSLRLSCAASGFIFRYSAMGWYRPAPGKERELVATITGRGGSTYYADSVKGRFTISRDNAKNTVYLQMNSLIPEDTAVYYCAARARYSPAPYDYWGQGTQVTVSS
2. QVQLVESGGGLVQAGGSLRLSCAASGFIFYRNTMGWYRQAPGKEREFVAAIRWRGGSTYYADSVKGRFTISRDNAKNTVYLQMNSLKPEDTAVYYCAADSRPVYSGFEYWGQGTQVTVSS
3. QVQLVESGGGLVQAGGSLRLSCAASGRTFWYYAMGWYRQSPGKERELVAVITSGSSTYYADSVKGRFTISRDNAKNTVYLQMNSLKPEDTAVYYCNKLGRIQYDYWGQGTQVTVSS
4. QVQLVESGGGLVQAGGSLRLSCAASGSILQQIYAMGWYRPAPGKERELVAAISASGGSTYYADSVKGRFTISRDNAKNTVYLQMNSLKPEDTAVYYCNKVGYYASVLGYDYWGQGTQVTVSS
5. QVQLVESGGGLVQAGGSLRLSCAASGSTFANYAMGWYRQAPGKERELVAAISRGGNTYYADSVKGRFTISRDNAKNTVYLQMNSLKPEDTAVYYCAARAPRFSRSSQPGDYWGQGTQVTVSS

high polyreactivity
high polyreactivity
high polyreactivity
high polyreactivity
high polyreactivity

Take each entry in turn and give its polyreactivity (PSR sort gate).
1. QVQLVESGGGLVQAGGSLRLSCAASGFTFVYYAMGWYRQAPGKERELVAAISGRGGSTYYADSVKGRFTISRDNAKNTVYLQMNSLKPEDTAVYYCATTYSWYYVPYKPHIYYYWGQGTQVTVSS
2. QVQLVESGGGLVQAGGSLRLSCAASGFIFRANAMGLYREAPGKERELVATISRSGGSTSYADSVKGRFTISRDNAKNTVYLQMNSLKPEDTAVYYCNKRTPYLRPIRDYWGQGTQVTVSS
3. QVQLVESGGGLVQAGGSLRLSCAASGSIFEYYTMGWYIQAPGKERELVAGISWSGGSSYYADSVKGRFTISRDNAKNTVYLQMNSLKPEDTAVYYCAAGRTGWYWDSGSTYRYGYGYWGQGTQVTVSS

["low polyreactivity", "high polyreactivity", "high polyreactivity"]

----------
Assay: yeast display, Sf9 membrane polyspecificity reagent, FACS + sequencing; frameworks hold sequencing errors
measured parameter: polyreactivity (PSR sort gate)

Solved entries (count: 4):
1. QVQLVESGGGLVQAGGSLRVSCAASGRILSRNAMGWYRQAPGKERELVAAISISGGSTYYADSVKGRFTISRDNAKNTVYLQMNSLKPEDTAVYYCNTAYYGSRKYDYWGQGTQVTVSS :: high polyreactivity
2. QVQLVESGGGLVQAGGSLLLSCAASGRIFSYNAMGWYRQAPGKERELVAVISRSDTSTYYADSVKGRFTISRDNAKNTVYLQMNSLKPEDTAVYYCNADGPSYFRYSGYYYWGQGTQVTVSS :: low polyreactivity
3. QVQLVESGGGLVQAGGSLRLSCAASGITFYAYVMGWYRQAPGKERELVAAISGGGSTYYADSVKGRFTISRDNAKNTVYLQMNSLKPEDTAVYYCNAELSFWDLGYDYWGQGTQVTVSS :: low polyreactivity
4. QVQLVESGGGLCQAGGSLRLSCAASGRTFYKNTMGWYRQAPGKERELVAAISIRGGSTYFADTVKGRFTISRDNAKNTFYLQMNSLKPEDTAVYYCNVVYQKAARIVDFDYWGQGTQVTLSS :: high polyreactivity

Please find the next sequence below.
// query polyreactivity (PSR sort gate) value for entry QVQLVESGGGLVQAGGSLSLICAASGRIYYRYHMGWYRQAPGKERELVATISRSGGSTNYADSVKGRFTISRDNAKNTVYLQMNSLNPEYTAVYYCNALYLSTRSGDYWGQGTQVTVSS
high polyreactivity

----------
Assay: yeast display, Sf9 membrane polyspecificity reagent, FACS + sequencing; frameworks hold sequencing errors
measured parameter: polyreactivity (PSR sort gate)

Previously resolved entries follow.
1. QVQLVESGGGLVQAGGSLRLSCAASGRIFGYYAMGWYRLAPGKERELVAAITSGGRTTYADSVKGRFTISRDNAKNTVYVQMNSLKPEDTAVYYCAKEYPRYSSPYDYWGQGTQVTVSS :: low polyreactivity
2. QVQLVESGGGLVQAGGSLRLSCAASGSIFFYALGWYRQAPGKERELVADITYTGGSKYADSVKGRFTISRDNAKNTVYLQLNRLKPEDTAVYYCAKLDGGLFDYWGQGTQVTVSS :: low polyreactivity
3. QVQLVESGGGLVQAGGSLRLSCAGSGRTFRTYTRGWYRQAPGKERELVAAISWSGSSTYYADSVKGRFTISRDNAKNTVYLQMNSLKPEDTAVYYCAARGLYDYGYWGQGTQVTVSS :: high polyreactivity
4. QVQLVESGGGLLQAGGSLRLSCAASGIIFFYYSMGWYRQAPGKERELVAAISSDGSTYYADSVKGRFTSSRDNAKNTVYLQMNSLKPEDTAVDYCAAQYNHWWEYDYWGQGTQVTVSS :: low polyreactivity
5. QVQLVESGGGLVQAGGSLRLSCAASGRTFGYYAMGWYRQAPGKERELVAAISGNGDNTYYADSVKGRFTISRDNAKNTVYLQMNCLIPEDTAVYYCSLWYRYKYAPYRLHGYWGQGTQVTVSS :: high polyreactivity
6. QVQLVESGGGLVQAGGSLRLSCAASGSTLVTYAMGWYRQAPGKERELVAGISSGGSTNYADSVKGRFTISRDNAKNTVYLQMNSLKPEDTAVYYCAAQGSLTWWAATFIYDYWGQGTQVTVSS :: low polyreactivity
7. QVQLVESGGGLVQAGGSLRLSCAASGSTLKYYAMGRYRQAPGKEMELVAAIRNLGGRTYYADSVKGRFTISRDNAKNTVYLQMNSLKPEDTAVYYCAAQFQSTAVGRDNYWGQGTQVTVSS :: high polyreactivity
8. QVQLVESGGGLVQAGGSLRLSCAASGFTFDYYTMGWYRQAPGKEREFVAAITWNGGSTYYADSVKGRFTISRYNAKNTVYLQMNSLKPEDSAVYYCAADTTYGINRREYWGQGTQVTVSS :: low polyreactivity

Batch: polyreactivity (PSR sort gate) for all items listed.
1. QVQLVESGGGLVQAGGSLSLSCAASGSTFYGYAMGWYRQAPGKERELVAAITRSGGSTYYADSVKGRFTISRDNAKNTVYLQMNSLTPEDTAVYYCAAERLYYYVYWGQGTQVTVSS
2. QVQLVESGGGLVQAGGSLRLSCAASGSIFSYYAMGWYRQAPGKERELVAVISSSGGRTYYADSVKGRFTISRDNAKNTVYLQMNSLKPEDTAVYYCARERWWGGSDYWGQGTQVTVSS
3. QVQLVESGGGLVQAGGSLRLSCAASGSTFYYNDMGWYRQAPGKERELVAAIRTSGSTNYADSVKGRFTISRDYAKNNVYLQMNSLKPEDTAVYYCNAVVRHWFPGWYGRGDDYWGQGTQVTVSS

low polyreactivity
high polyreactivity
low polyreactivity

src = the nanobody polyreactivity screen of Harvey et al. (2022)
